- Tested System: FAP (Homo sapiens (Human))
- Sequence (Q12884 38-760): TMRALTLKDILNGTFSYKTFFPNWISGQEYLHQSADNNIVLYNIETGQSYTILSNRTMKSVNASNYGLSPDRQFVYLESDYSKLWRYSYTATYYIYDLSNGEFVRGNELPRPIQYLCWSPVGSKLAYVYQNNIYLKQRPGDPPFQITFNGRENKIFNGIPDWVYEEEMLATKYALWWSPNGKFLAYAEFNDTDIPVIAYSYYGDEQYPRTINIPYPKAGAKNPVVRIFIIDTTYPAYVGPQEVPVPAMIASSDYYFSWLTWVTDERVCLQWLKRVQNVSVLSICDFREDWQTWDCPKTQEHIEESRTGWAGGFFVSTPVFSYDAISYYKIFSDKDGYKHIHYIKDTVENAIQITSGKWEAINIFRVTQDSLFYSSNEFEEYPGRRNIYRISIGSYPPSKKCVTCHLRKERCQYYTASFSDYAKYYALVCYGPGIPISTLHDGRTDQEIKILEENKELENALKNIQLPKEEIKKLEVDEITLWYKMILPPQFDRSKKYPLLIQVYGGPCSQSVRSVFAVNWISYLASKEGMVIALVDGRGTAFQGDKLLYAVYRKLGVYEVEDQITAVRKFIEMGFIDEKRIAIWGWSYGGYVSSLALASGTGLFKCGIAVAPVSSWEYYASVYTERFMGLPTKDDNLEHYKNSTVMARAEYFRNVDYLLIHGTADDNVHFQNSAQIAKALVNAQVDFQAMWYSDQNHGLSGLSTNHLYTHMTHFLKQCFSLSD
- Experiment: hFAP inhibition assay
- Assay type: biochemical
- Particulars: hFAP […], Ala-Pro-AMC 20 μM; n = 1 or geometric mean n = 2-3
Observation Type: IC50 (nM)

> print(dat)
                              line.notation  reported.measurement
1  N#C[C@@H]1CSCN1C(=O)CNC(=O)c1ccnc2ccc(N3CC(F)(c4ccccc4)C3)cc12                  0.41

[A] Cc1ccc(C2CN(c3ccc4nccc(C(=O)NCC(=O)N5CSC[C@H]5C#N)c4c3)C2)cc1
[B] N#C[C@@H]1CSCN1C(=O)CNC(=O)c1ccnc2ccc(-c3ccc(C(F)F)nc3)cc12
[C] CC1(C)CCN1c1ccc2nccc(C(=O)NCC(=O)N3CSC[C@H]3C#N)c2c1
Query: Could you please order the items by IC50, going from the lowest number to the highest? Output spec: labels arranged per the requested ranking.
Reply: B, A, C
